Consider the following compounds; for each one, report its viability at 0.0001 µg/mL.
# Tested on: MCF7
# experimental details: Anticancer activity against wild-type human MCF7 cells assessed as cell viability at 0.0001 ug/mL after 24 hrs by MTT assay relative to control
# Assay type: functional
# condition summary: MCF7, 24 h, read-out: Activity
Give bare numbers, in %.

Reference set, count: 5
COc1cc(/C=C/C(=O)C(=Cc2cn(-c3ccccc3)nc2-c2ccccc2O)C(=O)/C=C/c2ccc(O)c(OC)c2)ccc1O ... 100
COc1cc(/C=C/C(=N\NC(N)=O)C(=Cc2cn(-c3ccccc3)nc2-c2ccc([N+](=O)[O-])cc2)C(/C=C/c2ccc(O)c(OC)c2)=N/NC(N)=O)ccc1O ... 110
COc1cc(/C=C/C(=N\NC(N)=O)C(=Cc2cn(-c3ccccc3)nc2-c2cccc([N+](=O)[O-])c2)C(/C=C/c2ccc(O)c(OC)c2)=N/NC(N)=O)ccc1O ... 91
COc1cc(/C=C/C(=N\NC(N)=O)C(=Cc2cn(-c3ccccc3)nc2-c2ccc(Cl)cc2)C(/C=C/c2ccc(O)c(OC)c2)=N/NC(N)=O)ccc1O ... 87
O=Cc1cn(-c2ccccc2)nc1-c1cccc([N+](=O)[O-])c1 ... 89

List viability at 0.0001 µg/mL for every entry below, keeping the order given.
1. COc1cc(/C=C/C(=O)C(=Cc2cn(-c3ccccc3)nc2-c2ccc([N+](=O)[O-])cc2)C(=O)/C=C/c2ccc(O)c(OC)c2)ccc1O
2. O=Cc1cn(-c2ccccc2)nc1-c1ccccc1O
3. COc1cc(/C=C/C(=O)C(=Cc2cn(-c3ccccc3)nc2-c2ccc(Cl)cc2)C(=O)/C=C/c2ccc(O)c(OC)c2)ccc1O
4. O=Cc1cn(-c2ccccc2)nc1-c1ccc([N+](=O)[O-])cc1
5. O=Cc1cn(-c2ccccc2)nc1-c1ccc(Cl)cc1
6. COc1cc(/C=C/C(=N\NC(N)=O)C(=Cc2cn(-c3ccccc3)nc2-c2ccccc2O)C(/C=C/c2ccc(O)c(OC)c2)=N/NC(N)=O)ccc1O
7. COc1cc(/C=C/C(=O)C(=Cc2cn(-c3ccccc3)nc2-c2cccc([N+](=O)[O-])c2)C(=O)/C=C/c2ccc(O)c(OC)c2)ccc1O

Outgoing:
1. 98
2. 96
3. 95
4. 106
5. 100
6. 92
7. 99

* * *

# experimental details: Hemolytic activity in rabbit RBC at 100 ug/mL after 3 hrs by colorimetric assay relative to control
# Type: ADME, cell-based, Oryctolagus cuniculus, Erythrocyte
# condition summary: rabbit red blood cells (RBC), read-out: Activity
quantity kind: hemolysis at 3 h, 100 ug/mL (%)
Give bare numbers, in %.

O=Cc1cn(-c2ccccc2)nc1-c1ccc(Cl)cc1 ... 9

List hemolysis at 3 h, 100 ug/mL for every entry below, keeping the order given.
1. O=Cc1cn(-c2ccccc2)nc1-c1ccccc1O
2. O=Cc1cn(-c2ccccc2)nc1-c1ccc([N+](=O)[O-])cc1
3. COc1cc(/C=C/C(=O)C(=Cc2cn(-c3ccccc3)nc2-c2ccc(Cl)cc2)C(=O)/C=C/c2ccc(O)c(OC)c2)ccc1O
4. COc1cc(/C=C/C(=O)C(=Cc2cn(-c3ccccc3)nc2-c2cccc([N+](=O)[O-])c2)C(=O)/C=C/c2ccc(O)c(OC)c2)ccc1O
5. COc1cc(/C=C/C(=N\NC(N)=O)C(=Cc2cn(-c3ccccc3)nc2-c2ccccc2O)C(/C=C/c2ccc(O)c(OC)c2)=N/NC(N)=O)ccc1O
6. COc1cc(/C=C/C(=N\NC(N)=O)C(=Cc2cn(-c3ccccc3)nc2-c2ccc([N+](=O)[O-])cc2)C(/C=C/c2ccc(O)c(OC)c2)=N/NC(N)=O)ccc1O

Outgoing:
18
7
16
14
25
11
